- experimentalTarget: Peroxisome proliferator-activated receptor alpha (Homo sapiens) (UniProt Q07869)
- Sequence (Q07869 whole entry): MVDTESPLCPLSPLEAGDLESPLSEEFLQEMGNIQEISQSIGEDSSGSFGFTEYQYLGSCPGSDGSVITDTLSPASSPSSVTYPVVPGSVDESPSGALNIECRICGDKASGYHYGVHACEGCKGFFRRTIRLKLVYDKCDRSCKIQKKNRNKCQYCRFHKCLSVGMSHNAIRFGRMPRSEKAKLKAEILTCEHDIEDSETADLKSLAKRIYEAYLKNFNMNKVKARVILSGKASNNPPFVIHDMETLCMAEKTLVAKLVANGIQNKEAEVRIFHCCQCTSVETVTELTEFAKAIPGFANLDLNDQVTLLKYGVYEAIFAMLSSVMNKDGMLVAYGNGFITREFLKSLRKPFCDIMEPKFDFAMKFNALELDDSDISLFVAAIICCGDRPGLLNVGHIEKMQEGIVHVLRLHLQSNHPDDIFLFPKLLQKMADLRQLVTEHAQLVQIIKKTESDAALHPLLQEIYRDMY
- procedureDetails: Agonist activity at human PPARalpha expressed in nonhuman mammalian cells assessed as maximal increase in receptor transcriptional activity incubated for 22 to 24 hrs by luciferase reporter gene assay relative to GW590735
- Type: cell-based
assayEndpoint: fold change (FC)
Form rule: numeric answer, no unit written next to it.

Please review the following examples before continuing.
smi: O=C(O)c1cccc(NCc2ccc(OCCc3ccccc3)cc2)c1
fold change (FC): 0.9
--
smi: N#Cc1ccc(COc2ccc(CNc3cccc(C(=O)O)c3)cc2)cc1
fold change (FC): 1

Recorded fold change (FC) of O=C(O)c1cccc(NCc2ccc(OCc3ccc(F)cc3)cc2)c1 , please.
1.3

Again, but for O=C(NO)c1cccc(NCc2ccc(OCc3ccc(F)cc3)cc2)c1
0.6

Again, but for O=C(O)c1cccc(NCc2ccc(OCc3ccc(F)cc3)c(Cl)c2)c1
1.5

Again, but for O=C(O)c1cc(Br)cc(NCc2ccc(OCc3ccc(F)cc3)cc2)c1
1.4

Attribution: ChEMBL document CHEMBL4342468
